Reference source: PubChem BioAssay (NCI)

- assayName: NCI Yeast Anticancer Drug Screen. Data for the wt2 strain (AID 169);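 note: 0% = growth of vehicle-treated yeast cultures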
- cond: S. cerevisiae wt2 strain growth inhibition; at 3.7 µM; stronger effect = higher value
The panel holds about 79,000 compounds, 15% with a hit somewhere; the sample as a whole holds those more often.

- compound: "NNc1c(F)c(F)cc(F)c1F"
  growth inhibition [%]: -24
- compound: "c1ccc2c(c1)Oc1cccc3cccc-2c13"
  growth inhibition [%]: 0
- compound: "CSC(=S)Nc1cccc(C)n1"
  growth inhibition [%]: -30
- compound: "OC(COc1cccc2ccccc12)CN1CCOCC1 (stereo not drawn)"
  growth inhibition [%]: 27
- compound: "CC(CC(C)(C)[N+](C)(C)C)[N+](C)(C)C (stereo not drawn)"
  growth inhibition [%]: -1
- compound: "CCOC(=O)[C@H]1Nc2ccccc2C2c3ccccc3CC21 (stereo partly drawn)"
  growth inhibition [%]: -25
- compound: "COc1cc(C2c3cc4c(cc3OC(Nc3ccccc3)C2C)OCO4)cc(OC)c1O (stereo not drawn)"
  growth inhibition [%]: -2
- compound: "Cc1ccc(CCC2=CCCc3c2ccc2ccccc32)cc1"
  growth inhibition [%]: -5
- compound: "CC(=O)Oc1cc(-c2cc(OC(C)=O)c(OC(C)=O)c3ccccc23)c2ccccc2c1OC(C)=O"
  growth inhibition [%]: 9
- compound: "CC(=O)SCCC[Si](C)(C)CCCSC(C)=O"
  growth inhibition [%]: -9
- compound: "CC(Br)C(=O)c1ccc2cc(Br)c3ccccc3c2c1 (stereo not drawn)"
  growth inhibition [%]: -1
- compound: "C(CCSC1=NCCN1)CSC1=NCCN1 (tested in a mixture with another compound)"
  growth inhibition [%]: 10
- compound: "Cc1ccc(-c2ccc(Nc3c4ccccc4nc4ccccc34)cc2)cn1"
  growth inhibition [%]: 2
- compound: "O=[N+]([O-])c1cccc2nc3ccccc3c(NCCCN3CCOCC3)c12"
  growth inhibition [%]: 19
- compound: "C[C@H](CCC(=O)NN)[C@H]1CC[C@H]2[C@@H]3CC[C@@H]4C[C@H](O)CC[C@]4(C)[C@H]3CC[C@]12C"
  growth inhibition [%]: -2
- compound: "CN1CCc2ccccc2C1Cc1ccccc1NC(=O)c1sc2ccccc2c1Cl (stereo not drawn)"
  growth inhibition [%]: -13
- compound: "COc1cccc2nc3ccccc3nc12"
  growth inhibition [%]: -1
- compound: "CCCCCCCCCC/C=C\\C(=O)O"
  growth inhibition [%]: -15
- compound: "CN(Cc1cnc2nc(N)nc(N)c2n1)c1ccc(C(=O)N[C@@H](CCC(=O)O)C(=O)O)cc1"
  growth inhibition [%]: -4
- compound: "COC(=O)C1=C(C(=O)OC)C2(C)C=CC1O2 (stereo not drawn)"
  growth inhibition [%]: -3
- compound: "COc1ccc2sc3cccc(NCCN(C)C)c3c(=O)c2c1"
  growth inhibition [%]: -2
- compound: "OC(c1ccc(F)cc1)(c1ccc(F)cc1)C1CC1"
  growth inhibition [%]: -25
- compound: "O=C([O][Sn]([O]C(=O)c1ccccc1)([c]1ccccc1)[c]1ccccc1)c1ccccc1"
  growth inhibition [%]: 1
